target.of.assay: GDP-bound KRAS wild-type protein (Homo sapiens, UniProt P01116)
Sequence (P01116 whole entry): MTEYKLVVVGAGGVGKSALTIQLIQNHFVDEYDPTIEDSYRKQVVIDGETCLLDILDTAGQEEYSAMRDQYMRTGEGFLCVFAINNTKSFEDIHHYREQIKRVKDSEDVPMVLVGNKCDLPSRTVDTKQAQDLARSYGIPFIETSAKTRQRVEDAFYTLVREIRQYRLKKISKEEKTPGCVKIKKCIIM
assay.method.text: Binding to KRAS by surface plasmon resonance (SPR), Single Cycle Kinetics
assay.setup: SPR, Single Cycle Kinetics, 1:1 binding model; GDP-bound KRAS wild-type protein; read-out: KRAS KD

[
  {
    "compound": "CCO[C@@H]1C[C@H]2C(=O)NC3(CCC3)C(=O)N(C)[C@@H](C3CCCC3)C(=O)N(C)[C@H](C(=O)N3CCOCC3)CC(=O)N(C)[C@@H](CC)C(=O)N[C@@H]([C@@H](C)CC)C(=O)N3CC[C@H]3C(=O)N(C)[C@H]3C[C@@H](C)[C@@H](C)CN(C3=O)[C@@H](Cc3ccc(C(F)(F)F)cc3)C(=O)N(C)CC(=O)N[C@@H](CCc3cc(F)c(C(F)(F)F)c(F)c3)C(=O)N2C1 [PP1351]",
    "unit.annotation": "pM",
    "Kd": 130
  },
  {
    "compound": "CCO[C@@H]1C[C@H]2C(=O)NC3(CCC3)C(=O)N(C)[C@@H](C3CCCC3)C(=O)N(C)[C@H](C(=O)N3CCCC3)CC(=O)N(C)[C@@H](CC(F)F)C(=O)N[C@@H]([C@@H](C)CC)C(=O)N(C)CC(=O)N(C)[C@H]3C/C=C\\CCN(C3=O)[C@@H](Cc3ccc(C(F)(F)F)cc3)C(=O)N(C)CC(=O)N[C@@H](CCc3cc(F)c(C(F)(F)F)c(F)c3)C(=O)N2C1 [PP1298]",
    "unit.annotation": "pM",
    "Kd": 130
  },
  {
    "compound": "CCO[C@@H]1C[C@H]2C(=O)NC3(CCC3)C(=O)N(C)[C@@H](C(CC)CC)C(=O)N(C)[C@H](C(=O)N(C)C)CC(=O)N(C)[C@@H](CC3CC3)C(=O)N[C@@H]([C@@H](C)CC)C(=O)N(C)CC(=O)N(C)[C@H]3C/C=C\\CCN(C3=O)[C@@H](Cc3ccc(C(F)(F)F)cc3)C(=O)N(C)CC(=O)N[C@@H](CCc3ccc4sccc4c3)C(=O)N2C1 [PP1227]",
    "unit.annotation": "pM",
    "Kd": 1600
  }
]
